# System Name: T1, Human ROR1-ECD-his (Acro Biosystems RO1-H522y) (human, UniProt Q01973 30-406)
# T1 construct: extracellular domain; bought protein; also called hROR1-ECD-his; hu-ROR1-ECD-his
# T1 sequence (Q01973 30-406): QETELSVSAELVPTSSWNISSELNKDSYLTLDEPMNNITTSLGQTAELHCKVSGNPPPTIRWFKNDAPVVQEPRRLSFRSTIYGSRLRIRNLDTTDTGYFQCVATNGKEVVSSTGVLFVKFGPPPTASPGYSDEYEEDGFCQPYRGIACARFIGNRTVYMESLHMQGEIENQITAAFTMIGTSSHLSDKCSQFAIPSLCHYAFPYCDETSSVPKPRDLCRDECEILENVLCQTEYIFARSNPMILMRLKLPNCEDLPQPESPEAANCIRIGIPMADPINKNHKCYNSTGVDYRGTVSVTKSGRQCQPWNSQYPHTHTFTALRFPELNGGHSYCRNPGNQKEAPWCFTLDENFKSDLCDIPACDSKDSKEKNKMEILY
# Assay Procedure: BLI in-tandem, row = 1st Ab; competitor (2nd Ab): PR005340
Reported Endpoint: Inhibition (%)
Give your result in % as a bare value.

The recorded Inhibition (%) for PR007424 (antibody, V domains shown, bivalent form (HCAb) variant of PR005340, no light chain) VH: EVQLVESGGGLVKPGGSLRLSCAASGFTFSDYYMSWIRQAPGKGLEWISYIDSSGRPLAYADSVKGRFTISRDNAKNSLYLQMNSLRAEDTAIYYCARDMPSSSSDWVSLQFDYWGQGTLVTVSS is 111

Record PR000374 (antibody, human IgG1, kappa, V domains shown, positive control; also called Bench marker 1) VH: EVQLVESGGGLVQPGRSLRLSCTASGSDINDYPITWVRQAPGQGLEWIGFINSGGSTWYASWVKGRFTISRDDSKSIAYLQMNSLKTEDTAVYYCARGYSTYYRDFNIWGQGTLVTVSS VL: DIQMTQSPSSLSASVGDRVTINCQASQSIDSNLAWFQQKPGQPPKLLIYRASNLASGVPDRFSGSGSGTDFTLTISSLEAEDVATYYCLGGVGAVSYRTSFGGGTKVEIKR . Reported Inhibition (%): -7.48

Memo: PR007417 (antibody, V domains shown, bivalent form (HCAb) variant of PR005340, no light chain) VH: EVQLVESGGGLVKPGGSLRLSCAASGFTFSDFYMSWIRQAPGKGLEWISYISSSGSTRYYADSVKGRFTISRDNAKNSLYLQMNSLRAEDTAIYYCARDIPSSSSDWVDLQFDYWGQGTLVTVSS , reported Inhibition (%): 116

For PR005340 (antibody, human IgG1, V domains shown, HCAb (heavy chain-only, human IgG1 Fc), no light chain) VH: EVQLVESGGGLVKPGGSLRLSCAASGFTFSDYYMSWIRQAPGKGLEWISYISSSGSTIHYADSVKGRFTISRDNAKNSLYLQMNSLRAEDTAIYYCARDIPSSSSDWVSLQFDYWGQGTLVTVSS the binder record lists Inhibition (%) as 109

Record PR005338 (antibody, human IgG1, V domains shown, HCAb (heavy chain-only, human IgG1 Fc), no light chain) VH: EVQLVESGGGLVKPGGSLRLSCAASGFTFSDYYMSWIRQAPGKGLEWISYISSSGTTIHYADSVKGRFTISRDNAKNSLYLQMNSLRTEDTAVYYCARDAPSSNSDWVSLQFDYWGQGTLVTVSS . Reported Inhibition (%): 108
